- Test system: SNB-19
- Protocol summary: NCI tumour cell line growth inhibition, 48 h
Active and inactive are the calls of the source. Rule as the data show it: active = GI50 up to about 1.1 µM and inactive = higher.
Measurement label: GI50

Input: For the molecule `NC(=O)c1ncn2c(=O)n(CCl)nnc12` , what GI50 is on record?
Output: > 100 µM (inactive)

Input: # GI50 lookup, item COc1ccc2c(c1)Oc1cc(O)ccc1[C@@H]2c1ccccc1C(=O)NC(C)c1ccccc1 (stereo not given in full)
Output: 15.6 µM (inactive)

Input: Please report the recorded GI50 for CC1Cc2cc(O)c(O)cc2-c2cc(O)c(O)cc2CC1C (stereo not given) .
Output: 26.5 µM (inactive)

Input: Tell me the measured GI50 of `O=C(Nc1cccc2ccccc12)c1ccccc1` , please.
Output: > 100 µM (inactive)

Input: Can you look up the measured GI50 of `COC(=O)N/N=C(\C(=O)Nc1cccc([N+](=O)[O-])c1)c1nc2ccc([N+](=O)[O-])cc2nc1O` for me?
Output: > 100 µM (inactive)

Input: Name the reported GI50 value associated with the molecule O=C1C2CCC(C2)C12CC1(c3ccccc3)C(=O)c3ccccc3N1O2 (stereo not given)
Output: > 100 µM (inactive)

Input: Would you mind telling me what GI50 value was observed for `NC1=C(Cl)C(=O)c2ccccc2C1=O` ?
Output: 9.46 µM (inactive)

Input: Requested read-out: GI50. Entry: `Cc1ccc(NC(=O)CC/C(CC(=O)C(C)(C)C)=N\NC(=O)C[n+]2ccccc2)cc1C`
Output: > 100 µM (inactive)

Input: Consider the molecule `O=C(N[C@@H](c1ccccc1)[C@@H](O)C(=O)OCc1ccc([N+](=O)[O-])cc1)c1ccccc1` and give its measured GI50.
Output: > 100 µM (inactive)

Input: Consider the molecule shown here: `CC(=O)c1c2c(cc3c1CCC3)CCC2` What is its recorded GI50?
Output: > 100 µM (inactive)

Input: Dear colleague, I am looking for the recorded GI50 of the following molecule: `CNC(=O)CN(CC(N)=O)C(N)=O`
Output: > 100 µM (inactive)

Input: Recorded GI50 of C=C1C(=O)CC2C1CC(=O)/C(C)=C/CCC(C)(O)C2O (stereo not given) , please.
Output: > 54.3 µM (inactive)

Input: What value of GI50 has been recorded for this entry: COC(CO[Si](C)(C)N[Si](C)(C)OCC(OC)c1ccccc1)c1ccccc1 (stereo not given)
Output: > 100 µM (inactive)

Input: Tell me the measured GI50 of CC(O)C1(O)C(O)CC(OC2c3cc4c(c(O)c3[C@@H]3C[C@@]2(C)OC32C=c3cc[nH]c3=N2)C(=O)c2cccc(O)c2C4=O)OC1C (stereo not given in full) , please.
Output: 2.34 µM (inactive)

Input: Reported GI50, molecule CCCC(Sc1nc(N)nc2nc[nH]c12)C(=O)O (stereo not given) : ____
Output: > 100 µM (inactive)

Input: Param item = O=C(O)CCC(NC(=O)c1ccc(Nc2nc3ccccc3nc2C(=O)O)cc1)C(=O)O (stereo not given) ; retrieve measured GI50.
Output: > 100 µM (inactive)

Input: // query GI50 value for entry CCOC(=O)C(NC(=O)CC)(Nc1ccc(S(=O)(=O)Nc2nc(C)cc(C)n2)cc1)C(F)(F)F (stereo not given)
Output: > 100 µM (inactive)

Input: Returns the measured GI50 for the input molecule. Input: `O=C1[C@@H]2C3C=CC([C@H]4C(=O)N(CO)C(=O)[C@@H]34)[C@@H]2C(=O)N1CO`
Output: > 100 µM (inactive)

Input: Returns the measured GI50 for the input molecule. Input: Nc1ncc2ncn(C3CCC(CO)O3)c2n1 (stereo not given)
Output: > 100 µM (inactive)

Input: # get_value(readout='GI50', item= `Oc1c(Cl)cc2cc1-c1cc(cc(Cl)c1O)CCc1c(cc(Cl)c(O)c1Cl)-c1cc(Cl)c(c(Cl)c1O)/C=C\2` )
Output: 11.6 µM (inactive)
